Values from the MegaScale stability set (Tsuboyama et al. 2023)

B1: EEHEE_rd4_0647 (parent)
chain: MQVTWGNVTVTFSNPEEAKKYAEKVARKLGGQVELHNGQFRIK

# Variants of: B1
# Run description: folding stability dG (cDNA display proteolysis); higher = more stable
# Condition notes: PBS, room temperature
Value kind: folding stability dG (kcal/mol)
Field format: number, assumed kcal/mol, no unit text.

Worked set:
{"Variant string": "Q39L", "folding stability dG / kcal/mol": 2.1}
{"Variant string": "V10T", "folding stability dG / kcal/mol": 1.74}
{"Variant string": "K19A", "folding stability dG / kcal/mol": 2.53}
{"Variant string": "Q39W", "folding stability dG / kcal/mol": 1.7}

Prompt: # input variant: "A22S" ; wanted: its folding stability dG
Completion: 1.24
